# Tested on: HONECis-6
# assayRemarks: Cell growth inhibition assay on drug-resistant line HONECis-6
# assayConditions: read-out: Cytotoxicity HONECis -6; Table 1; Cis Res.; MTS, 72 h
reportedMetric: IC50 (µM)
# unit: µM | format: bare number

Input line: # get_value(readout='IC50', item= N.N.[Cl][Pt][Cl] [Cisplatin, reference compound] )
Output line: 15

###

# System: MESSA/DX5 uterine cell line
# assayRemarks: Cell growth inhibition assay (cytotoxicity), MESSA/DX5
# Format: cell-based
# assayConditions: Homo sapiens, MES-SA/Dx5, Table 2, MTS, 72 h
reportedMetric: IC50 (nM)
Express your answer in nM, writing the number without its unit.

Input line: Any idea what IC50 was measured for COc1ccc2c(C(=O)c3cc(OC)c(OC)c(OC)c3)c[nH]c2c1 ?
Output line: 3.8

###

# System: KB-Vin10
# assayRemarks: cells
# assayConditions: read-out: Cytotoxicity KB -Vin10; Table 1; Vin. Res; MTS, 72 h
reportedMetric: pIC50
pIC50 field: float, defined as -log10 of concentration (mol/L).

Input line: May I ask what pIC50 has been recorded for N.N.[Cl][Pt][Cl] [Cisplatin, reference compound] ?
Output line: 8.30

###

# Tested on: A549 lung cell line
# assayRemarks: Cell growth inhibition assay (cytotoxicity), A549
# Format: cell-based
# assayConditions: Homo sapiens, Table 2, MTS, 72 h
reportedMetric: pIC50
The quantity pIC50 is defined as the negative base-10 logarithm of the molar concentration.

Input line: Please give the measured pIC50 for this compound: COc1ccc2c(C(=O)c3cc(OC)c(OC)c(OC)c3)c[nH]c2c1
Output line: 7.77
